experimental-system: Serine/threonine-protein kinase pim-2 (Homo sapiens)
Sequence (Q9P1W9 whole entry, looked up): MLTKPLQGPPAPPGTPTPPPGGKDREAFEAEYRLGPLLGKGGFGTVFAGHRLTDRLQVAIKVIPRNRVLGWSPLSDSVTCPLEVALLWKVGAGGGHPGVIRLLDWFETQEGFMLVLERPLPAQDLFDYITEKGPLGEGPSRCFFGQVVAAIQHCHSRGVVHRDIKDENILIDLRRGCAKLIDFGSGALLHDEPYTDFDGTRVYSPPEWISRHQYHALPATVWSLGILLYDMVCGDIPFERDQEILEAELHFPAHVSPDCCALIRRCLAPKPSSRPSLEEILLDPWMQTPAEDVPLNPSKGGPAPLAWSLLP
protocol-description: Inhibition of human recombinant PIM2 expressed in Escherichia coli assessed as residual activity using RSRHSSYPAGT as substrate at 10 uM after 30 mins
measure-name: Activity (%)
Number only, in %; omit the unit.

INPUT: Record lookup: for Serine/threonine-protein kinase pim-2 (Homo sapiens), what Activity belongs to `O=Cc1cn2c3c1ccc1c4ccccc4n(c13)CCCC2` ?
OUTPUT: 6

INPUT: Likewise for `C[N+](C)(CCO)Cc1cn(CCCCn2c3ccccc3c3ccc4c(C=O)c[nH]c4c32)nn1` ?
OUTPUT: 65

INPUT: Same for `[N-]=[N+]=NCCCCn1c2ccccc2c2ccc3c(C=O)c[nH]c3c21`
OUTPUT: 22

INPUT: Another: `CN(C)c1cccc2c(S(=O)(=O)NCc3cn(CCCCn4c5ccccc5c5ccc6c(C=O)c[nH]c6c54)nn3)cccc12`
OUTPUT: 66

INPUT: Proceed to `O=Cc1c[nH]c2c1ccc1c3ccccc3n(CCCCn3cc(CO)nn3)c12`
OUTPUT: 36

###

Record form. Attribute: Activity. Fill in for each entry.
experimental-system: Serine/threonine-protein kinase pim-3 (Homo sapiens, UniProt Q86V86)
protocol-description: Inhibition of human recombinant His6-tagged PIM3 expressed in Sf21 cells assessed as residual activity using RSRHSSYPAGT as substrate at 10 uM after 30 mins
Report the value in % with no unit label.

INPUT: Param item = `O=Cc1cn2c3c1ccc1c4ccccc4n(c13)CCCC2` ; retrieve measured Activity.
OUTPUT: 1

INPUT: And for `CN(C)c1cccc2c(S(=O)(=O)NCc3cn(CCCCn4c5ccccc5c5ccc6c(C=O)c[nH]c6c54)nn3)cccc12` ?
OUTPUT: 38

INPUT: Proceed to `O=Cc1c[nH]c2c1ccc1c3ccccc3n(CCCCn3cc(CO)nn3)c12`
OUTPUT: 23

INPUT: Next compound up: `[N-]=[N+]=NCCCCn1c2ccccc2c2ccc3c(C=O)c[nH]c3c21`
OUTPUT: 14

INPUT: Here is the next compound: `C[N+](C)(CCO)Cc1cn(CCCCn2c3ccccc3c3ccc4c(C=O)c[nH]c4c32)nn1`
OUTPUT: 28

###

experimental-system: Serine/threonine-protein kinase pim-3 (Homo sapiens, UniProt Q86V86)
protocol-description: Inhibition of human recombinant His6-tagged PIM3 expressed in Sf21 cells using RSRHSSYPAGT as substrate after 30 mins
Kindly state IC50 for each of the entries shown.
Report the value in nM with no unit label.

INPUT: What does the record list as IC50 for `O=Cc1cn2c3c1ccc1c4ccccc4n(c13)CCCC2` ?
OUTPUT: 13

INPUT: Then this molecule: `[N-]=[N+]=NCCCCn1c2ccccc2c2ccc3c(C=O)c[nH]c3c21`
OUTPUT: 108

INPUT: Can you check `C[N+](C)(CCO)Cc1cn(CCCCn2c3ccccc3c3ccc4c(C=O)c[nH]c4c32)nn1` next?
OUTPUT: 490

INPUT: Also need `O=Cc1c[nH]c2c1ccc1c3ccccc3n(CCCCn3cc(CO)nn3)c12` , thanks.
OUTPUT: 235

###

What Activity was measured for each of the following?
experimental-system: Serine/threonine-protein kinase pim-1 (Homo sapiens)
Sequence (P11309 whole entry, looked up): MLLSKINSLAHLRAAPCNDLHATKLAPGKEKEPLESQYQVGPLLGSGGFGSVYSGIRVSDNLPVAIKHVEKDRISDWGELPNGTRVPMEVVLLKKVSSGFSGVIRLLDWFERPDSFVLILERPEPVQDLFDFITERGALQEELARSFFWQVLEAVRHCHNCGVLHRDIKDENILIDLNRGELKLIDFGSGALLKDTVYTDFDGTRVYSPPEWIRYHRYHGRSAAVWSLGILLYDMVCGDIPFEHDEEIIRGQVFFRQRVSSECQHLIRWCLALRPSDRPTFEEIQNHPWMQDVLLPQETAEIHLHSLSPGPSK
protocol-description: Inhibition of human recombinant His6-tagged PIM1 expressed in Sf21 cells assessed as residual activity using RSRHSSYPAGT as substrate at 10 uM after 30 mins
Note to self: number, then unit, no commentary.

INPUT: Identify the measured Activity of `CN(C)c1cccc2c(S(=O)(=O)NCc3cn(CCCCn4c5ccccc5c5ccc6c(C=O)c[nH]c6c54)nn3)cccc12` for Serine/threonine-protein kinase pim-1 (Homo sapiens).
OUTPUT: 17%

INPUT: Same again, this time with `O=Cc1cn2c3c1ccc1c4ccccc4n(c13)CCCC2`
OUTPUT: 7%

INPUT: `O=Cc1c[nH]c2c1ccc1c3ccccc3n(CCCCn3cc(CO)nn3)c12` , same question.
OUTPUT: 8%

INPUT: Now this one: `C[N+](C)(CCO)Cc1cn(CCCCn2c3ccccc3c3ccc4c(C=O)c[nH]c4c32)nn1`
OUTPUT: 9%

INPUT: Field entry: `[N-]=[N+]=NCCCCn1c2ccccc2c2ccc3c(C=O)c[nH]c3c21`
OUTPUT: 9%

Data provenance is ChEMBL document CHEMBL1949527.
